tested on: S. aureus GC1131 (Clinical); assay: MIC, broth microdilution (NCCLS); format: cell-based; conditions: Staphylococcus aureus, Mueller-Hinton II broth, 18-22 hours at 35° C.
Binary label based on MIC with cut-off 8 µg/mL: below gives criterion met, not below gives criterion not met.

- CCCCNCc1nc2cc(N(C)C)c3c(c2o1)C(=O)C1=C(O)[C@]2(O)C(=O)C(C(N)=O)=C(O)[C@@H](N(C)C)[C@@H]2C[C@@H]1C3 [Example 39]: criterion not met
- CN(C)c1cc2nc(-c3cc4ccccc4n3C)oc2c2c1C[C@H]1C[C@H]3[C@H](N(C)C)C(O)=C(C(N)=O)C(=O)[C@@]3(O)C(O)=C1C2=O [Example 19]: criterion met
- CN(C)c1cc2nc(C(C)(C)C)oc2c2c1C[C@H]1C[C@H]3[C@H](N(C)C)C(O)=C(C(N)=O)C(=O)[C@@]3(O)C(O)=C1C2=O [Example 4]: criterion not met
- COc1cc(OC)c(-c2nc3cc(N(C)C)c4c(c3o2)C(=O)C2=C(O)[C@]3(O)C(=O)C(C(N)=O)=C(O)[C@@H](N(C)C)[C@@H]3C[C@@H]2C4)c(OC)c1 [Example 15]: criterion not met
- CN(C)c1cc2nc(-c3ccncc3)oc2c2c1C[C@H]1C[C@H]3[C@H](N(C)C)C(O)=C(C(N)=O)C(=O)[C@@]3(O)C(O)=C1C2=O [Example 33]: criterion not met
- CN(C)c1cc2nc(/C=C/c3ccccc3F)oc2c2c1C[C@H]1C[C@H]3[C@H](N(C)C)C(O)=C(C(N)=O)C(=O)[C@@]3(O)C(O)=C1C2=O [Example 30]: criterion met
- Cc1ccc(-c2nc3cc(N(C)C)c4c(c3o2)C(=O)C2=C(O)[C@]3(O)C(=O)C(C(N)=O)=C(O)[C@@H](N(C)C)[C@@H]3C[C@@H]2C4)cc1 [Example 5]: criterion met
- COc1ccc(/C=C/c2nc3cc(N(C)C)c4c(c3o2)C(=O)C2=C(O)[C@]3(O)C(=O)C(C(N)=O)=C(O)[C@@H](N(C)C)[C@@H]3C[C@@H]2C4)cc1 [Example 26]: criterion not met
- COc1ccc(-c2nc3cc(N(C)C)c4c(c3o2)C(=O)C2=C(O)[C@]3(O)C(=O)C(C(N)=O)=C(O)[C@@H](N(C)C)[C@@H]3C[C@@H]2C4)cc1F [Example 13]: criterion met
- CN(C)c1cc2nc(CN3CCCC3)oc2c2c1C[C@H]1C[C@H]3[C@H](N(C)C)C(O)=C(C(N)=O)C(=O)[C@@]3(O)C(O)=C1C2=O [Example 37]: criterion met
- CCCNCc1nc2cc(N(C)C)c3c(c2o1)C(=O)C1=C(O)[C@]2(O)C(=O)C(C(N)=O)=C(O)[C@@H](N(C)C)[C@@H]2C[C@@H]1C3 [Example 38]: criterion not met
- CN(C)c1cc2nc(-c3ccc4c(c3)OCO4)oc2c2c1C[C@H]1C[C@H]3[C@H](N(C)C)C(O)=C(C(N)=O)C(=O)[C@@]3(O)C(O)=C1C2=O [Example 14]: criterion met
- CN(C)c1cc2nc(-c3ccc(OCc4ccccc4)cc3)oc2c2c1C[C@H]1C[C@H]3[C@H](N(C)C)C(O)=C(C(N)=O)C(=O)[C@@]3(O)C(O)=C1C2=O [Example 11]: criterion not met
- CN(C)c1cc2nc(-c3ccco3)oc2c2c1C[C@H]1C[C@H]3[C@H](N(C)C)C(O)=C(C(N)=O)C(=O)[C@@]3(O)C(O)=C1C2=O [Example 20]: criterion not met
